target: UniProtKB Q9NYK1; assay: TLR7 inhibition reporter assay (HEK-Blue cells, SEAP reporter, gardiquimod stimulation); type: cell-based; settings: HEK-Blue cells overexpressing human TLR7, gardiquimod 7.5 μM
Sequence (Q9NYK1 27-1049): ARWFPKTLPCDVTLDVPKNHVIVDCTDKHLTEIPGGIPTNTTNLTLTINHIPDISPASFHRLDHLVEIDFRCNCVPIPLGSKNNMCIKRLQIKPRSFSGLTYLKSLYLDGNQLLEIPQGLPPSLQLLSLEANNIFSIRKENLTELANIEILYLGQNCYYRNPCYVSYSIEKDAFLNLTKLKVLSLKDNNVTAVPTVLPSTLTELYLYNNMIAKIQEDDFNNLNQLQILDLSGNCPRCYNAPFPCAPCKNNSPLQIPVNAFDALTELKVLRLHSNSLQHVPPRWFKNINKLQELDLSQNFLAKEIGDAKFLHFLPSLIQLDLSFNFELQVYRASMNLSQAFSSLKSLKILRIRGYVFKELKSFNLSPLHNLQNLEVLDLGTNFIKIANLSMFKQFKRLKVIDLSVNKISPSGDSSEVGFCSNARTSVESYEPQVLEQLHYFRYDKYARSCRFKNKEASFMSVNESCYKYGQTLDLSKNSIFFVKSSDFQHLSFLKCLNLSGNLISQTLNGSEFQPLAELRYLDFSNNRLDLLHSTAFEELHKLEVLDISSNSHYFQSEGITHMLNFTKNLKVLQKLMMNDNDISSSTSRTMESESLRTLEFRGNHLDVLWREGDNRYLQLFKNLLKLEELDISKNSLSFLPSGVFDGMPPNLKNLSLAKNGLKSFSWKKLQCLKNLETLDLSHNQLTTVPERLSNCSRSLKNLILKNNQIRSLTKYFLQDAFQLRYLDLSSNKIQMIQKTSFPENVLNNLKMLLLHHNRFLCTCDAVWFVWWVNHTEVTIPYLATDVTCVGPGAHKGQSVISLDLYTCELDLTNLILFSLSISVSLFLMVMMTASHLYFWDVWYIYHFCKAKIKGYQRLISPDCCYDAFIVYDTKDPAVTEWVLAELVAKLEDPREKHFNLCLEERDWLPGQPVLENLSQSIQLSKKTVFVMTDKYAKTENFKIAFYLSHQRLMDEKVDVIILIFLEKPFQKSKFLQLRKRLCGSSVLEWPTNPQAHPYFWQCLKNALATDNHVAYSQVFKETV
pIC50: −log10 of the molar value.
property: pIC50

molecule=Cc1cc(-c2[nH]c3ccc(C4CCN(C(=O)C5CCN(C(C)C)CC5)CC4)cc3c2C(C)C)ccn1 readout_number=7.78
molecule=CC(C)c1c(-c2ccnc(N)c2)[nH]c2ccc(C3CCNCC3)cc12 readout_number=7.46
molecule="Cc1cc(-c2[nH]c3ccc(C4CCN(CC(O)c5ccccc5)CC4)cc3c2C(C)C)ccn1 (stereo not shown)" readout_number=7.22
molecule=Cc1nccc(-c2[nH]c3ccc(C4CCN(Cc5cnc[nH]5)CC4)cc3c2C(C)C)c1N readout_number=7.00
molecule=Cc1cc(-c2[nH]c3ccc(C4CCN(C(=O)c5cn(C)nc5C)CC4)cc3c2C(C)C)cc(C)n1 readout_number=8.32
molecule=Cc1cc(-c2[nH]c3ccc(C4CCN(C(=O)C[C@H](C)O)CC4)cc3c2C(C)C)cc(C)n1 readout_number=7.97
molecule=Cc1cc(-c2[nH]c3ccc(C4CCN(C(=O)CN(C)C5CCCCC5)CC4)cc3c2C(C)C)cc(C)n1 readout_number=7.84
molecule=COCCN1CCN(C(=O)CN2CCC(c3ccc4[nH]c(-c5cc(C)nc(C)c5)c(C(C)C)c4c3)CC2)CC1 readout_number=8.82
molecule=Cc1cc(-c2[nH]c3ccc(C4CCN(C5COC5)CC4)cc3c2C(C)C)c(F)c(C)n1 readout_number=8.00
molecule=Cc1cc(-c2[nH]c3ccc(C4CCN(CC5CC5)CC4)cc3c2C(C)C)cc(C)n1 readout_number=8.60
molecule=Cc1cc(-c2[nH]c3ccc(C4CCN(C5COC5)CC4)cc3c2C(C)C)c(C)cn1 readout_number=7.61
molecule=Cc1cc(-c2[nH]c3ccc(C4CCN(CC(N)=O)CC4)cc3c2C(C)C)c(F)cn1 readout_number=8.82
molecule=Cc1cc(-c2[nH]c3ccc(C4CCNCC4)cc3c2C(C)C)ccn1 readout_number=8.21
molecule=Cc1cc(-c2[nH]c3ccc(C4CCN(CC(=O)N5CCC5)CC4)cc3c2C(C)C)cc(C)n1 readout_number=8.42
molecule="Cc1cc(-c2[nH]c3ccc(C4CCN(CC(=O)NC5CCCOC5)CC4)cc3c2C(C)C)cc(C)n1 (stereo not shown)" readout_number=8.64
molecule=Cc1cc(-c2[nH]c3ccc(C4CCN(C(=O)CCn5ccnc5C)CC4)cc3c2C(C)C)cc(C)n1 readout_number=8.72

====

biological target: UniProt:Q9NYK1; experiment: TLR7 inhibition reporter assay (HEK-Blue cells, SEAP reporter, gardiquimod stimulation); type: cell-based; settings: HEK-Blue cells overexpressing human TLR7, gardiquimod 7.5 μM
pIC50: −log10 of the molar value.
property: pIC50

compound=Cc1cc(-c2[nH]c3ccc(C4CCN(C(=O)CN5CCC[C@H]5CO)CC4)cc3c2C(C)C)cc(C)n1 property=pIC50 readout_number=8.66
compound=Cc1cc(-c2[nH]c3ccc(C4CCN(C(=O)C5CCOCC5)CC4)cc3c2C(C)C)cc(C)n1 property=pIC50 readout_number=8.05
compound=Cc1cc(-c2[nH]c3ccc(C4CCN(CC(=O)N5CC6(COC6)C5)CC4)cc3c2C(C)C)cc(C)n1 property=pIC50 readout_number=8.36
compound="Cc1cc(-c2[nH]c3ccc(C4CCN(CC(=O)N5CCCC(O)C5)CC4)cc3c2C(C)C)cc(C)n1 (stereo not shown)" property=pIC50 readout_number=8.70
compound=Cc1cc(-c2[nH]c3ccc(C4CCN(S(=O)(=O)C5CC5)CC4)cc3c2C(C)C)ccn1 property=pIC50 readout_number=7.46
compound=Cc1cc(-c2[nH]c3ccc(C4CCN(C(=O)C5(N(C)C)CC5)CC4)cc3c2C(C)C)cc(C)n1 property=pIC50 readout_number=8.10
compound=CCc1c(-c2cc(C)nc(C)c2)[nH]c2ccc(C3CCN(CC(=O)NC)CC3)cc12 property=pIC50 readout_number=7.27
compound=CCc1c(-c2ccnc(C)c2)[nH]c2ccc(C3CCN(C)CC3)cc12 property=pIC50 readout_number=7.17
compound=Cc1cc(-c2[nH]c3ccc(C4CCNCC4)cc3c2C(C)(C)C)ccn1 property=pIC50 readout_number=4.63
compound=Cc1cc(-c2[nH]c3ccc(C4CCN(C(=O)C5(C)CCNCC5)CC4)cc3c2C(C)C)cc(C)n1 property=pIC50 readout_number=8.55
compound=CC(C)c1c(-c2ccnc(C(C)(C)O)c2)[nH]c2ccc(C3CCNCC3)cc12 property=pIC50 readout_number=7.51
compound=Cc1cc(-c2[nH]c3ccc(C4CCN(C(=O)CN5C[C@@H](O)CC5=O)CC4)cc3c2C(C)C)cc(C)n1 property=pIC50 readout_number=7.93
compound=CCc1c(-c2ccnc(NC)c2)[nH]c2ccc(C3CCN(C4CCN(CC(C)C)CC4)CC3)cc12 property=pIC50 readout_number=5.47
compound="Cc1cc(-c2[nH]c3ccc(C4CCN(C(=O)C5CCOC(C(C)C)C5)CC4)cc3c2C(C)C)cc(C)n1 (stereo not shown)" property=pIC50 readout_number=7.35
compound=CNCCN1CCC(c2ccc3[nH]c(-c4ccnc(N5CCN(C)CC5)c4)c(C)c3c2)CC1 property=pIC50 readout_number=5.39
compound=Cc1cc(-c2[nH]c3ccc(C4CCNCC4)cc3c2C(C)C)c(C(N)=O)cn1 property=pIC50 readout_number=5.81
compound=CNCCN1CCC(c2ccc3[nH]c(-c4ccnc(OC)c4)c(CC4CC4)c3c2)CC1 property=pIC50 readout_number=7.03
compound=Cc1cc(-c2[nH]c3ccc(C4CCN(C(=O)CNS(C)(=O)=O)CC4)cc3c2C(C)C)cc(C)n1 property=pIC50 readout_number=8.14
compound=Cc1cc(-c2[nH]c3cc(C(F)(F)F)c(C4CCNCC4)cc3c2C(C)C)ccn1 property=pIC50 readout_number=7.88
compound=Cc1cc(-c2[nH]c3ccc(C4CCN(C(=O)CNC5(C)CCOCC5)CC4)cc3c2C(C)C)cc(C)n1 property=pIC50 readout_number=8.25
compound=Cc1cc(-c2[nH]c3ccc(C4CCN(C(=O)OC(C)C)CC4)cc3c2C(C)C)ccn1 property=pIC50 readout_number=6.30
compound="Cc1cc(-c2[nH]c3ccc(C4CCN(C(=O)CN(C)CC(O)c5ccccc5)CC4)cc3c2C(C)C)cc(C)n1 (stereo not shown)" property=pIC50 readout_number=8.21
compound=CC(C)c1c(-c2ccnc(Cl)c2F)[nH]c2ccc(C3CCNCC3)cc12 property=pIC50 readout_number=8.82
compound=CNC(=O)CN1CCC(c2ccc3[nH]c(-c4cc(C)ncc4F)c(C(C)C)c3c2)CC1 property=pIC50 readout_number=8.55
compound=Cc1cc(-c2[nH]c3ccc(C4CCN(Cc5ncn(C)n5)CC4)cc3c2C(C)C)c(F)cn1 property=pIC50 readout_number=7.86
compound=Cc1cc(-c2[nH]c3ccc(C4CCN(C5COC5)CC4)cc3c2C(C)C)c(F)cn1 property=pIC50 readout_number=7.86
compound=Cc1cc(-c2[nH]c3ccc(C4CCN(C(=O)CNCC5CC5)CC4)cc3c2C(C)C)cc(C)n1 property=pIC50 readout_number=8.55
compound=Cc1cc(-c2[nH]c3ccc(C4CCN(CC(=O)N(C)C5CC5)CC4)cc3c2C(C)C)cc(C)n1 property=pIC50 readout_number=8.64
compound=Cc1cc(-c2[nH]c3ccc(C4CCN(C(=O)CCN(C)C5COC5)CC4)cc3c2C(C)C)cc(C)n1 property=pIC50 readout_number=8.33
compound=Cc1cc(-c2[nH]c3ccc(C4CCN(CC(=O)NC56C[C@@H]7C[C@@H](CC(O)(C7)C5)C6)CC4)cc3c2C(C)C)cc(C)n1 property=pIC50 readout_number=7.94
compound=Cc1cc(-c2[nH]c3ccc(C4CCN(CC(=O)N(C)CC(C)(C)O)CC4)cc3c2C(C)C)cc(C)n1 property=pIC50 readout_number=8.31

Taken from patent US10660877B2.
